Biological target: human GLP-1 receptor (human, UniProt P43220 24-463)
Assay: cell-based or functional assay
Non-standard residues stand in square brackets, D forms with d. No end group written: not given here. Met(O2) = CS(=O)(=O)CC[C@H](N)C(=O)O; d(αMeK) = C[C@@](N)(CCCCN)C(=O)O; Met(O) = CS(=O)CC[C@H](N)C(=O)O; αMeK = C[C@](N)(CCCCN)C(=O)O; Aib = CC(C)(N)C(=O)O

{"Binder": "Y[Aib]EGTFTSDLSIQLEEEAVRLFIEWLKAGGPSSGAPPPS-NH2 [SEQ ID NO: 15]", "EC50 hGLP-1 R [pM], cAMP formation / pM": 1.4}
{"Binder": "Y[Aib]EGTFTSDLSIQLEKEAVRLFIEWLKAGGPSSGAPPPS-NH2 [SEQ ID NO: 20]", "EC50 hGLP-1 R [pM], cAMP formation / pM": 1}
{"Binder": "Y[Aib]EGTFTSDLSIQLEEEAV[d(αMeK)]LFIEWLKAGGPSSGAPPPS-NH2 [SEQ ID NO: 18]", "EC50 hGLP-1 R [pM], cAMP formation / pM": 2}
{"Binder": "Y[Aib]EGTFTSDLSIQ[Met(O2)]EKEAVRLFIEWLKAGGPSSGAPPPS-NH2 [SEQ ID NO: 14]", "EC50 hGLP-1 R [pM], cAMP formation / pM": 0.6}
{"Binder": "Y[Aib]EGTFTSDLSIQ[Met(O)]EKEAVRLFIEWLKAGGPSSGAPPPS-NH2 [SEQ ID NO: 13]", "EC50 hGLP-1 R [pM], cAMP formation / pM": 0.4}
{"Binder": "Y[Aib]EGTFTSDLSIQLEEEAV[Aib]LFIEWLKAGGPSSGAPPPS-NH2 [SEQ ID NO: 16]", "EC50 hGLP-1 R [pM], cAMP formation / pM": 1}
{"Binder": "Y[Aib]EGTFTSDLSIQMEKEAVRLFIEWLKAGGPSSGAPPPS-NH2 [SEQ ID NO: 9]", "EC50 hGLP-1 R [pM], cAMP formation / pM": 1.1}
{"Binder": "Y[Aib]EGTFTSDLSIQLEEEAV[αMeK]LFIEWLKAGGPSSGAPPPS-NH2 [SEQ ID NO: 17]", "EC50 hGLP-1 R [pM], cAMP formation / pM": 1.1}

Where these numbers come from: patent US20150166627A1
